Test: Pro-Drug DTNB assay with or without esterase
Assay type: biochemical
Conditions: 22.5 μM prodrug, 100 μM DTNB, pH 7.5, no enzyme
Structures can show the parent of a compound that is named as a salt.
OBSERVABLE: Reduction Without Esterase

- CC(=O)SCc1ccc(OCCN(C[C@H](O)[C@@H](O)[C@H](O)[C@H](O)CO)C[C@H](O)[C@@H](O)[C@H](O)[C@H](O)CO)cc1: No
- CC(C)C(=O)SCc1ccc(OCCN(C[C@@H](O)[C@@H](O)[C@H](O)[C@H](O)CO)C[C@@H](O)[C@@H](O)[C@H](O)[C@H](O)CO)cc1.Cl: No
- CC(=O)SCc1ccc(OCCCCCCN(C[C@H](O)[C@@H](O)[C@H](O)[C@H](O)CO)C[C@H](O)[C@@H](O)[C@H](O)[C@H](O)CO)cc1.Cl: No
- CC(C)C(=O)SCc1cccc(OCCN(C[C@H](O)[C@@H](O)[C@H](O)[C@H](O)CO)C[C@H](O)[C@@H](O)[C@H](O)[C@H](O)CO)c1 [Compound 14, Hydrochloride]: No
- CCC(=O)SCc1cccc(OCCN(C[C@@H](O)[C@@H](O)[C@H](O)[C@H](O)CO)C[C@@H](O)[C@@H](O)[C@H](O)[C@H](O)CO)c1.Cl: No

Report Reduction Without Esterase for every entry below.
1. CC(=O)SCc1cccc(OCCN(C[C@@H](O)[C@@H](O)[C@H](O)[C@H](O)CO)C[C@@H](O)[C@@H](O)[C@H](O)[C@H](O)CO)c1
2. CCC(=O)SCc1cccc(OCCN(C[C@H](O)[C@@H](O)[C@H](O)[C@H](O)CO)C[C@H](O)[C@@H](O)[C@H](O)[C@H](O)CO)c1.Cl
3. Cl.O=C(SCc1cccc(OCCN(C[C@@H](O)[C@@H](O)[C@H](O)[C@H](O)CO)C[C@@H](O)[C@@H](O)[C@H](O)[C@H](O)CO)c1)c1ccco1
4. CC(C)C(=O)SCc1cccc(OCCN(C[C@@H](O)[C@@H](O)[C@H](O)[C@H](O)CO)C[C@@H](O)[C@@H](O)[C@H](O)[C@H](O)CO)c1.Cl [Compound 15a]
5. Cl.O=C(SCc1cccc(OCCN(C[C@H](O)[C@@H](O)[C@H](O)[C@H](O)CO)C[C@H](O)[C@@H](O)[C@H](O)[C@H](O)CO)c1)c1ccco1
6. CC(=O)SCc1cccc(OCCN(C[C@H](O)[C@@H](O)[C@H](O)[C@H](O)CO)C[C@H](O)[C@@H](O)[C@H](O)[C@H](O)CO)c1.Cl

RESULT:
1: No; 2: No; 3: No; 4: No; 5: No; 6: No

Data provenance is patent US10106551B2.
